target: ActRIIA and ActRIIB (on TGFB/SMAD SBE Reporter HEK293 cells) (human); experiment: cell-based or functional assay
Sequence (chain, as listed by the source, chain 1 of 2): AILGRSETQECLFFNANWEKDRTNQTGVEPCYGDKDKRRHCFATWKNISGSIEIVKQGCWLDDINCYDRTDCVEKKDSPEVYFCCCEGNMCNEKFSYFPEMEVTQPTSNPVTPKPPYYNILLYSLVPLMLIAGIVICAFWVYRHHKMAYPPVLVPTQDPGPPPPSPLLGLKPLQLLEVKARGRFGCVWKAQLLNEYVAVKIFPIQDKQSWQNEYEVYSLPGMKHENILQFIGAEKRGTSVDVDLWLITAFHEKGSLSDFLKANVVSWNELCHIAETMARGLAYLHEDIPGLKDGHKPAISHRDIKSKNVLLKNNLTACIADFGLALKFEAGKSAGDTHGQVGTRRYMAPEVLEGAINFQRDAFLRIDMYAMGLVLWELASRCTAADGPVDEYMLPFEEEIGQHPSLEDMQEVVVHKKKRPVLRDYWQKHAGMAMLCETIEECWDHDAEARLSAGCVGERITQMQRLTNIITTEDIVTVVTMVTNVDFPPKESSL
Sequence (chain, as listed by the source, chain 2 of 2): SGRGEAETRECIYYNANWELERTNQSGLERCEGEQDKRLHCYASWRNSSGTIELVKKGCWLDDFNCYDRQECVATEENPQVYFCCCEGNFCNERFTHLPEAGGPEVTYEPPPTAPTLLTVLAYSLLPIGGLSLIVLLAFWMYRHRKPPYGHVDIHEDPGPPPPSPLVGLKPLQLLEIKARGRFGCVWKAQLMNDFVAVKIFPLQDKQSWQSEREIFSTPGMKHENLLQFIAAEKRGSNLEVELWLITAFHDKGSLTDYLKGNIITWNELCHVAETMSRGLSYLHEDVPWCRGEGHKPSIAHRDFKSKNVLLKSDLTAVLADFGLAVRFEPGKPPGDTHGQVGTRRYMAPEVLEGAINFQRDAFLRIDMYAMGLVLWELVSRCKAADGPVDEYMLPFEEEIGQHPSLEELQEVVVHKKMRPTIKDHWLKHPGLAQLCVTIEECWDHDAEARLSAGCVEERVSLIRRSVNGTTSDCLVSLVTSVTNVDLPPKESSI
Quick reference: IC95, Activin SMAD RGA of the listed items.
Entry rule: numbers only, all in nM.

[
  {
    "Binder": "Antibody Soidawürstle (antibody, V domains shown, full-length IgG; also called Soidawüsrstel) VH: QVQLVQSGAEVRKPGSSVKVSCKASGYTFTSSYINWVRQAPGQGLEWMGTINPVSGSTSYAQKFQGRVTITADTSTSTAYMELSSLRSEDTAVYYCARGGWFDYWGQGTLVTVSS VL: QSALTQPRSVSGSPGQSVTISCTGTSSDVGSYNRVNWYQQHPGKAPKLMIYGVSKRESGVPDRFSGSKSGNTASLTISGLQAEDEADYYCGTFAGGRYYGVFGGGTKLTVL",
    "IC95, Activin SMAD RGA / nM": 8.86
  }
]

Could you tell me which IC95, Activin SMAD RGA is on file for Antibody Ofaschlupfer (antibody, V domains shown, full-length IgG) VH: QVQLVQSGAEVKKPGSSVKVSCKASGYTFTSSYINWVRQAPGQGLEWMGTINAVSGSTSYAQKFQGRVTITADTSTSTAYMELSSLRSEDTAVYYCARGGWFDYWGQGTLVTVSS VL: QSALTQPRSVSGSPGQSVTISCTGTSSDVGSKNYVNWYQQHPGKAPKLMIYGVSKRESGVPDRFSGSKSGNTASLTISGLQAEDEADYYCGTFAGGKYYGVFGGGTKLTVL ?
4.97

Could you tell me which IC95, Activin SMAD RGA is on file for Bimagrumab (antibody, V domains shown) VH: QVQLVQSGAEVKKPGASVKVSCKASGYTFTSSYINWVRQAPGQGLEWMGTINPVSGSTSYAQKFQGRVTMTRDTSISTAYMELSRLRSDDTAVYYCARGGWFDYWGQGTLVTVSS VL: QSALTQPASVSGSPGQSITISCTGTSSDVGSYNYVNWYQQHPGKAPKLMIYGVSKRPSGVSNRFSGSKSGNTASLTISGLQAEDEADYYCGTFAGGSYYGVFGGGTKLTVL ?
37.9

Could you tell me which IC95, Activin SMAD RGA is on file for Antibody Schwardamaga (antibody, V domains shown, full-length IgG) VH: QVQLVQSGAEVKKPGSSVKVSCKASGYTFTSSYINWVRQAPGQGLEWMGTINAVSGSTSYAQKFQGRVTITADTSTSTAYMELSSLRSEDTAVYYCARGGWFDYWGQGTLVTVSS VL: QSALTQPRSVSGSPGQSVTISCTGTSSDVGSANYVNWYQQHPGKAPKPMIYGVSRRPSGVPDRFSGSKSGNTASLTISGLQAEDEADYYCGTFAGGKYYGVFGGGTKLTVL ?
14.2
